Recorded values, source patent US20100273814A1.

STUDY_SYSTEM: alpha2C receptor (Homo sapiens, UniProt P18825)
Construct: expressed in transfected cells; host or cells: NIH-3T3 cells
Sequence (P18825 whole entry): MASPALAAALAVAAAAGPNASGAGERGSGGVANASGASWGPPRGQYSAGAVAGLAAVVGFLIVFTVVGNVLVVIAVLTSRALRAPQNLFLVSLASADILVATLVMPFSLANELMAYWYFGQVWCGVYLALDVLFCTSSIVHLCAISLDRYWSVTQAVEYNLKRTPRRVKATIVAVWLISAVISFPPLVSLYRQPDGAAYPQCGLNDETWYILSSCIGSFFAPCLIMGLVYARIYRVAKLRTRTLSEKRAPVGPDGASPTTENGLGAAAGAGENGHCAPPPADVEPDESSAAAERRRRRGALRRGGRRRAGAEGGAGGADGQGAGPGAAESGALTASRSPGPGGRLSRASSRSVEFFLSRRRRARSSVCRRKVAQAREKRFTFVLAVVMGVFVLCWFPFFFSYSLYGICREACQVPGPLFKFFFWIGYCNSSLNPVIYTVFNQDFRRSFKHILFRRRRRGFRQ
ASSAY_COMMENT: Receptor Selection and Amplification Technology (RSAT) assay, alpha2C
Type: cell-based
READOUT_KIND: EC50

[
  {
    "COMPOUND": "Clc1cccc(C(c2ccccn2)c2c[nH]cn2)c1Cl (centres unmarked)",
    "READOUT_KIND": "EC50",
    "MEASURED_VALUE": "784 nM"
  },
  {
    "COMPOUND": "Fc1ccccc1C(c1cccnc1)c1c[nH]cn1 (centres unmarked)",
    "READOUT_KIND": "EC50",
    "MEASURED_VALUE": "2480 nM"
  }
]
